target: T1, muTfR extracellular domain (ECD), His-tagged (mouse, UniProt Q62351 89-763); experiment: BLI (Octet), IgG on Protein A sensor, muTfR-ECD-His in solution, 1:1 global fit
T1 construct: extracellular domain; Bought protein (Sino Biological); also called muTfR-His; muTfR ECD
T1 sequence (Q62351 89-763): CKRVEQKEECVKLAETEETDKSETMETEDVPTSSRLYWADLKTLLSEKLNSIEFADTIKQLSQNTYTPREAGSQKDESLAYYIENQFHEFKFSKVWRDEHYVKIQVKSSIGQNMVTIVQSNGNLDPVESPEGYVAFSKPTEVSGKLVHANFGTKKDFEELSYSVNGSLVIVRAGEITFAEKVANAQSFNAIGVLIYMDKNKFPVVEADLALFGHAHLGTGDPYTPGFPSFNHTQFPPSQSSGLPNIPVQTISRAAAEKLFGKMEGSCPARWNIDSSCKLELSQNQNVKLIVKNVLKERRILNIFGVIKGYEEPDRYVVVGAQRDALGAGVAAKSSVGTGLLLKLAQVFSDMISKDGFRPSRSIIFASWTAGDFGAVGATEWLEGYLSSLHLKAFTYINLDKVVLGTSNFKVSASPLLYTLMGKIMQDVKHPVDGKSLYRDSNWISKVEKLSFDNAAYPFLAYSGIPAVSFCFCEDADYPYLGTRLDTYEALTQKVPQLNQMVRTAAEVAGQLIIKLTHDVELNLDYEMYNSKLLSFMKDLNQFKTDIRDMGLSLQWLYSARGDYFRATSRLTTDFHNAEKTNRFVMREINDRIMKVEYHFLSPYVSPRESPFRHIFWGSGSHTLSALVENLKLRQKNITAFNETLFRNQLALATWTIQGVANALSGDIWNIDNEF

binder: Ab42 (antibody, V domains shown) VH: QVQLVQSGAEVKKPGSSVKVSCKASGGTFSSYAISWVRQAPGQGLEWMGGIIPIFGTANYAQKFQGRVTITADESTSTAYMELSSLRSEDTAVYYCARGATRGMDVWGQGTLVTVSS VL: DIVMTQSPSSLSASVGDRVTITCRASQSISNFLNWYQQKPGKAPKLLIYAASSLQSGVPSRFSGSRSGTDFTLTISSLQPEDFATYYCQQSSSIPLTFGGGTKLEIK
Kd, nM: 2.09

binder: muTfR Ab4 (antibody, V domains shown, Biotinylated when used as the probe in the competition ELISA; the sites are not stated and the letters do not carry them., also called anti-muTfR Ab4; biotinylated Ab4) VH: EVQLVESGGGLVKPGGSLRLSCAASGFTFSWYTMNWVRQAPGKGLEWVSSISSSSSDMYYADSVKGRFTISRDNAKNSLYLQIDSLRAEDTAVYYCARAHYYDSTSLNHFYGMDVWGQGTTVTVSS VL: QSVLTQPPSVSVAPGKTARITCGGNNIGSRTVHWYQQRPGQAPMLVVSDDNDRPSGIPERFSGSNSGNTATLTITRVEAGDEADYYCQVWDSSSDHLVFGGGTQLTVL
Kd, nM: 5.03

binder: Ab5 (antibody, V domains shown) VH: QVQLVESGGGLVQPGRSLRLSCAASGFTFDDYAMHWVRQAPGKGLEWVSGISWNSGSIGYADSVKGRFTISRDNAKNSLYLQMNSLRAEDTALYYCAKVSSQSGSVAGFDYWGQGTLVSVSS VL: QPVLTQPPSASGTPGQRVTISCSGSSSNIGANYVYWYQQLPGTAPKLLIYRNNQRPSGVPDRFSGSKSGTSASLAIGGLRSEDEADYYCAGWDDSLSGVLFGGGTKVTVL
Kd, nM: 2.58

binder: Ab59 (antibody, V domains shown) VH: QVQLVESGGGVVQPGRSLRLSCAASGFTFSSYAMHWVRQAPGKGLEWVAVISYDGSNKYYADSVKGRFTISRDNSKNTLYLQMNSLRAEDTAVYYCARGGPYYDFWSDGMDVWGQGTMVTVSS VL: QSVLTQPHSVSESPGKTVTISCTRSSGSIASNYVQWYQQRPGSSPTTVIYEDNQRPSGVPDRFSGSIDSSSNSASLTISGLKTEDEADYYCQSYDSSNYVFGTGTKVTVL
Kd, nM: 2.17

src = patent US20240376222A1
